System Tested: T1, Interleukin-1 receptor type 1 (IL-1R1) on cells (human, UniProt P14778 18-569)
T1 sequence (looked up): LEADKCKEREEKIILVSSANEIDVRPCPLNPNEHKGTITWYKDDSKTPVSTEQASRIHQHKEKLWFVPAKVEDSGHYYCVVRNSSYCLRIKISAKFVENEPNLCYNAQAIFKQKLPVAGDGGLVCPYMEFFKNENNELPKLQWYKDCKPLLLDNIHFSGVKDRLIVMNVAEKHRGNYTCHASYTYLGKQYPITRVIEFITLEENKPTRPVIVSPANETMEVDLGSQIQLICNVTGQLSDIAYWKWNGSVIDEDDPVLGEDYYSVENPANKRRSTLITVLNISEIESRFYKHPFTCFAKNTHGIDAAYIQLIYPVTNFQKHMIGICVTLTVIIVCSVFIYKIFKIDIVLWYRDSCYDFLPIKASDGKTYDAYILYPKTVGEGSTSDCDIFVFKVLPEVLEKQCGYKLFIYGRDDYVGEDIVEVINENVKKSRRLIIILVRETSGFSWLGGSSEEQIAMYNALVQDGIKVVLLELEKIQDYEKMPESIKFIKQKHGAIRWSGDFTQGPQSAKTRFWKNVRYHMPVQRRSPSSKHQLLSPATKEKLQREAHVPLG
Assay Procedure: cell-based or functional assay
Below is a list of entries, each paired with its recorded ND50, inhibition of IL-1-induced IL-8 release from MRC-5 cells value.

q: So what does the record say about ND50, inhibition of IL-1-induced IL-8 release from MRC-5 cells for DOM4-122-23 (other) VL: DIQMTQSPSSLSASVGDRVTITCRASQWIGRELRWYQQKPGKAPMFLIYHASRLQRGVPSRFSGSGSGTDFTLTISSLQPEDFATYYCQQYHGWPLTFGQGTKVEIKR ?
a: ~1 nM

Moving on to the next binder.
q: So what does the record say about ND50, inhibition of IL-1-induced IL-8 release from MRC-5 cells for DOM4-129-1 (other) VL: DIQMTQSPSSLSASVGDRVTITCRASQNIDRELRWYQQKPGKAPMFLIYHASRLQRGVPSRFSGSGSGTDFTLTISSLQPEDFATYYCQQYHDFPLTFGQGTKVEIKR ?
a: ~10 nM
